These entries and their values trace back to PubChem BioAssay (NCI).

tested on: CAKI-1 renal; experiment: NCI tumour cell line growth inhibition, 48 h
MEASUREMENT TYPE: TGI

Some entries whose results are on file:
| COMPOUND | OBSERVED VALUE |
| --- | --- |
| CC(=O)OC1(C#N)CC2OC1C1N=NN(C(=O)OC(C)(C)C)C21 (stereo not given) | > 31.6 µM |
| C/C=C(\C)C(=O)N1c2ccccc2CC1c1c(C)[nH]c2ccccc12 (stereo not given) | > 100 µM |
| COC(=O)[C@H](Cc1cn(C)cn1)NC(=O)[C@@H](NC(=O)Nc1cc(C(F)(F)F)cc(C(F)(F)F)c1)C(C)(C)C | > 10 µM |
| COC(=O)C1=C(O)c2cc3c(cc2[C@H](c2cc(OC)c(OC)c(OC)c2)C1)OCO3 | > 100 µM |

[ask] Provide TGI, recorded with CAKI-1 renal, of CCOc1cc(/C=C2\N=C(c3ccccc3)N(c3nc4ccccc4s3)C2=O)ccc1O
[reply] > 100 µM

[ask] State TGI (CAKI-1 renal) of Cc1cc(C)c(O)c(CNCCCNCc2cc(C)cc(C)c2O)c1 .
[reply] 18.7 µM

[ask] Answer briefly: TGI recorded on CAKI-1 renal for Cc1ccc2c(c1)-c1oc(=O)c(-c3cc4ccccc4oc3=O)cc1C(O)O2 (stereo not given)
[reply] 46.7 µM
